Origin of measurements: patent US20260193344A1

Below: a set of entries, each annotated with reported IC50, ACTH-induced cAMP, MC4R cells.
Molecular target: T1, human ACTH 1-39 (human, not fully specified; N-terminal biotin in the ELISA and HTRF binding assays (p-1487, p-1488); 125I on Tyr23 in Example 9 (p-1542); unlabelled in SPR. Letters unchanged.)
T1 peptide: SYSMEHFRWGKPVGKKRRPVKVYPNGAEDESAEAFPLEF
Assay: cell-based or functional assay
# output: numeric value plus its unit

Below: 3 binders and their reported IC50, ACTH-induced cAMP, MC4R cells.
Binder: Ab2 (antibody, V domains shown) VH: QSVEESGGRLVTPGTPLTLTCTVSGFSLSKYDMIWVRQAPGKGLESIGIIYDDGDTYYASWAKGRFTISQTSTTVDLKIISPTTEDTATYFCVKGVSNIWGQGTLVTVSS VL: DVVMTQTPASVEAAVGGTVTIKCQASQSISNYLAWYQQKTGQPPKLLIYSASTLASGVPSRFKGSGSGTEFTLTISDLECADAATYYCQSYEGSSSSSYGVGFGGGTEVVVKR
Result: 54.5 nM
//
Binder: Ab7 (antibody, V domains shown, Full-length rabbit/human chimeric antibody, HEK-293) VH: QSVEESGGRLVTPGTPLTLTCTVSGFSLSSYAMSWVRQAPGEGLEWIGIISDSGSTYYASWAKGRFTISKTSTTVDLRITSPTTEDTATYFCAREPEYGYDDYGDWVSDLWGQGTLVTVSS VL: DIVMTQTPASVEAAVGGTVTIKCQASQSISDYLSWYQQKPGQPPKLLIYRASTLASGVPSRFKGSGSGTQFTLTISDLECADAATYYCQSYYYSSSITYRNAFGGGTEVVVKR
Result: 49.7 nM
//
Binder: Ab6 (antibody, V domains shown) VH: QSVEESGGRLVTPGTPLTLTCTVSGFSLTDYAMSWVRQAPGEGLEWIGIISDSGSTYYASWAKGRFTFSKTSTTVDLRITSPTTEDTATYFCAREPEYGYDEYGDWVSDLWGPGTLVTVSS VL: DIVMTQTPASVEAAVGGAVTIKCQATQSIGNNLAWYQQKPGQPPKLLIYRASTLASGVPSRFKGSGSGTEFTLTISDLECADAATYYCQSYYYSSSITYHNAFGGGTEVVVKR
Result: 55.2 nM

For the binder Ab5 (antibody, V domains shown) VH: QSVEESGGRLVTPGTPLTLTCTVSGFSLSSYAMSWVRQAPGEGLEWIGIISDSGSTYYASWAKGRFTISKTSTTVDLKITSPTTEDTATYFCAREPEYGYDDYGDWVSDLWGQGTLVTVSS VL: DIVMTQTPASVSEPVGGTVTIKCQASQSISSYLSWYQQKPGQPPKLLIYRASTLASGVPSRFKGSGSGTQFTLTISDLECADAATYYCQSYYYSSSITYRNAFGGGTEVVVKR , what IC50, ACTH-induced cAMP, MC4R cells is on record?
43.4 nM

# input binder: Ab1 (antibody, V domains shown, Full-length rabbit/human chimeric antibody, HEK-293) VH: QSVKESGGRLVTPGTPLTLTCTVSGFSLSNYDMIWVRQAPGKGLESIGMIYDDGDTYYASWAKGRFTISKTSTTVDLKIISPTTEDTATYFCVKGVSNHWGPGTLVTVSS VL: DVVMTQTPASVEAAVGGTVTIKCQASQSISSYLAWYQQKPGQPPKLLIYSASTLASGVPSRFKGRGSGTEFTLTISDLECADAATYYCQSYDGSSGSSYGVGFGGGTEVVVKR ; wanted: its IC50, ACTH-induced cAMP, MC4R cells
56.4 nM
